tested on: L1210 leukemia ip in BDF1 mice, survival T/C; test: NCI In Vivo Anticancer Drug Screen. Data for tumor model L1210 Leukemia (intraperitoneal) in B6D2F1 (BDF1) mice; conditions: endpoint: mean survival time; dose: 100.0 mg/kg/injection; schedule: Q04DX003 (ip); vehicle: saline; higher = longer survival
Inconclusive results and toxic doses are left out.
assay_metric: T/C

Use the examples below as a reference point.
1) CCC(C1CCC(O)CC1)C(CC)C1CCC(c2ccc(=O)oc2)C1 (stereo not drawn) = 103 % of control
2) Cc1ccc(S(=O)(=O)NC(=O)Oc2c(C(C)C)cccc2C(C)C)cc1 = 110 % of control

Note to self: T/C recorded for `Cc1c(NCO)c(=O)n(-c2ccccc2)n1C` was 118 % of control
